Reference source for all entries: ChEMBL document CHEMBL4339216

# System under test: COX2 (Prostaglandin G/H synthase 2) (Homo sapiens)
# Sequence (P35354 whole entry): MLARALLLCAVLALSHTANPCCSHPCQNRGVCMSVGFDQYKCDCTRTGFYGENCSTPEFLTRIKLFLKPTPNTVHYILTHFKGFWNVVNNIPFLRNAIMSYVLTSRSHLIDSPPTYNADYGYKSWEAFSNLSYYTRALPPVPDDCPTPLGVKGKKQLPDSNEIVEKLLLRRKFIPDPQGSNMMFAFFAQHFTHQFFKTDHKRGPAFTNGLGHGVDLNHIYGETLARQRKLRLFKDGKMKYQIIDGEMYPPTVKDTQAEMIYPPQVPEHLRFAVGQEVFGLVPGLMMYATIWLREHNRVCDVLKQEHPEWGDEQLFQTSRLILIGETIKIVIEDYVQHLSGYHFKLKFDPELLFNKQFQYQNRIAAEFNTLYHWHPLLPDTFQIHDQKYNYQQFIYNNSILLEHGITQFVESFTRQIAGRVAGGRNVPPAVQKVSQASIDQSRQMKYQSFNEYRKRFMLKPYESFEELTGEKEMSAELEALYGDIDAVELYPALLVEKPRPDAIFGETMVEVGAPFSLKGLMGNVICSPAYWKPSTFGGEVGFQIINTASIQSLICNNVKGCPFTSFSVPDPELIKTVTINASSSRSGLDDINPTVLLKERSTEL
# Experiment: Inhibition of human COX2 at 100 uM assessed as reduction in PGF2alpha production by ELISA
# Condition description: human COX2 enzyme
Kindly state inhibition at 100 µM for each of the entries shown.
Give bare numbers, in %.

Give me inhibition at 100 µM for each of these molecules, listed below.
1. COc1ccc2c(c1)c(Cc1nn(C)nc1O)c(C)n2C(=O)c1ccc(Cl)cc1
2. COc1ccc2c(c1)c(Cc1nonc1O)c(C)n2C(=O)c1ccc(Cl)cc1

A.
26
12

====

# Experiment: Lipophilicity, logD of the compound at pH 7.4
# Type: physicochemical
# Condition description: buffer
Reported endpoint: logD

COc1ccc2c(c1)c(Cc1nonc1O)c(C)n2C(=O)c1ccc(Cl)cc1 1.8
COc1ccc2c(c1)c(Cc1nn(C)nc1O)c(C)n2C(=O)c1ccc(Cl)cc1 3.1

Q. Using the record for `COc1ccc2c(c1)c(CC(=O)O)c(C)n2C(=O)c1ccc(Cl)cc1` , report its logD.
A. 1.01

====

# System under test: Prostaglandin G/H synthase 1 (Ovis aries)
# Experiment: Inhibition of ovine COX1 assessed as reduction in PGF2alpha production by ELISA
pIC50: −log10 of the molar value.
Kindly state pIC50 for each of the entries shown.

COc1ccc2c(c1)c(Cc1nn(C)nc1O)c(C)n2C(=O)c1ccc(Cl)cc1 < 4.00

# evaluate next
Q. Using the record for `COc1ccc2c(c1)c(Cc1nonc1O)c(C)n2C(=O)c1ccc(Cl)cc1` , report its pIC50.
A. < 4.00

====

# Experiment: Dissociation constant, pKa of the compound
# Format: physicochemical
Kindly state pKa for each of the entries shown.
Give bare numbers.

COc1ccc2c(c1)c(Cc1nonc1O)c(C)n2C(=O)c1ccc(Cl)cc1 4.09

Q. Using the record for `COc1ccc2c(c1)c(Cc1nn(C)nc1O)c(C)n2C(=O)c1ccc(Cl)cc1` , report its pKa.
A. 6.1

====

Kindly state inhibition at 100 µM for each of the entries shown.
# System under test: COX1 (Prostaglandin G/H synthase 1) (Ovis aries)
# Sequence (P05979 whole entry): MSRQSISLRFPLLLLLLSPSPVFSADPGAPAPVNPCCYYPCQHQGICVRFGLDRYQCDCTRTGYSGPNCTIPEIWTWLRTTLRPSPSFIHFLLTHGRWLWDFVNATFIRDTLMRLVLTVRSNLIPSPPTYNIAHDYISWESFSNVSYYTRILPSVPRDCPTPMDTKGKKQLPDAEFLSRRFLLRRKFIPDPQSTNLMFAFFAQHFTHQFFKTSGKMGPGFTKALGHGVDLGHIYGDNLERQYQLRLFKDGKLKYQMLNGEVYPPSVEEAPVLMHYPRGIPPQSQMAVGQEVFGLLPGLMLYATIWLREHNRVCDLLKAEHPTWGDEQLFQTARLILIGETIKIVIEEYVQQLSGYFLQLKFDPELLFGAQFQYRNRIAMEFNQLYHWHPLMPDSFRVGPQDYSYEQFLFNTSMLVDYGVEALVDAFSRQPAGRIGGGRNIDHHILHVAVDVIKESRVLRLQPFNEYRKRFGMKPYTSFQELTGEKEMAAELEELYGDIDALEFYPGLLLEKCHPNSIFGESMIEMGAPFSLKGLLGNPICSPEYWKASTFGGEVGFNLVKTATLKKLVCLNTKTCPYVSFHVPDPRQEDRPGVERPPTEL
# Experiment: Inhibition of ovine COX1 assessed as reduction in PGF2alpha production at 100 uM by ELISA
# Condition description: sheep, ovine COX1 enzyme
Numbers only, in %.

COc1ccc2c(c1)c(Cc1nn(C)nc1O)c(C)n2C(=O)c1ccc(Cl)cc1 37

# evaluate next
Q. Using the record for `COc1ccc2c(c1)c(Cc1nonc1O)c(C)n2C(=O)c1ccc(Cl)cc1` , report its inhibition at 100 µM.
A. 0
